List of viability, T/C values.
System: 299254-011-R-J1-PDC complex spheroid viability;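 further: spheroids exposed to drugs for one week before measurement; percent viability relative to DMSO vehicle control taken as 100%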
Assay: Anticancer human tumor 299254-011-R-J1-PDC patient-derived melanoma cell line growth inhibition [POLQ]
Conditions: second compound 3.16 µM; first compound 1 µM; hits give low values
API: value field is a number in %; no unit string.

* COc1ccc([C@@H](O)c2cc(-c3ncnc4cc(N5CCOCC5)ccc34)c(F)cc2Cl)nn1 + Nc1ccc(C#CCN(C(=O)Cc2ncc(C(F)(F)F)cc2C(F)(F)F)c2ccc(F)cc2)nn1 | 96
* CCCS(=O)(=O)Nc1ccc(F)c(C(=O)c2c[nH]c3ncc(-c4ccc(Cl)cc4)cc23)c1F + Nc1ccc(C#CCN(C(=O)Cc2ncc(C(F)(F)F)cc2C(F)(F)F)c2ccc(F)cc2)nn1 | 101

Kindly review the next molecule as well.
Measured viability, T/C of CCc1cc2c(N3CCc4c(cc(Cn5ccnc5)cc4-c4cn(C)nc4C(F)(F)F)C3=O)ccnc2c(OC)n1 + Nc1ccc(C#CCN(C(=O)Cc2ncc(C(F)(F)F)cc2C(F)(F)F)c2ccc(F)cc2)nn1 : 100

FYI, the data here is from PubChem BioAssay AID1963849.
